test system: UACC-62 melanoma; assay: NCI-60 one-dose screen, 48 h; settings: 10 µM
Compounds without any hit were thinned out: in the full panel of roughly 83,000, 20% have a hit. Active and inactive are the calls of the source. The calls were made as follows: active = growth percent below 10; inactive = the rest.
Outcomes: T = active, F = inactive

{"columns": ["molecule-smiles", "class-label"],
 "data": [
  ["COc1cc2c3c(n(CCCN4CCOCC4)c(=O)c2cc1OC)-c1nc2c(cc1C3=O)OCO2", "T"],
  ["CC[C@@]1(O)C(=O)OCc2c1cc1n(c2=O)Cc2c-1nc1cc(F)c(C)c3c1c2[C@@H](N)CC3", "T"],
  ["O=C1Nc2ccc(Cl)cc2/C1=C/c1cccc(OCc2ccccn2)c1", "T"],
  ["O=C(Nc1cccc(C(F)(F)F)c1)c1cncc(C#Cc2cnc3cccnn23)c1", "F"],
  ["COc1cc(NC(=O)c2cc(-c3ccc(F)cc3F)ccc2O)cc(OC)c1OC", "T"]
]}
